Molecular target: GST-cGB-PDE5 fusion protein (cGMP binding sites of human PDE5A) (Homo sapiens)
Sequence (O76074 46-539 limits assumed): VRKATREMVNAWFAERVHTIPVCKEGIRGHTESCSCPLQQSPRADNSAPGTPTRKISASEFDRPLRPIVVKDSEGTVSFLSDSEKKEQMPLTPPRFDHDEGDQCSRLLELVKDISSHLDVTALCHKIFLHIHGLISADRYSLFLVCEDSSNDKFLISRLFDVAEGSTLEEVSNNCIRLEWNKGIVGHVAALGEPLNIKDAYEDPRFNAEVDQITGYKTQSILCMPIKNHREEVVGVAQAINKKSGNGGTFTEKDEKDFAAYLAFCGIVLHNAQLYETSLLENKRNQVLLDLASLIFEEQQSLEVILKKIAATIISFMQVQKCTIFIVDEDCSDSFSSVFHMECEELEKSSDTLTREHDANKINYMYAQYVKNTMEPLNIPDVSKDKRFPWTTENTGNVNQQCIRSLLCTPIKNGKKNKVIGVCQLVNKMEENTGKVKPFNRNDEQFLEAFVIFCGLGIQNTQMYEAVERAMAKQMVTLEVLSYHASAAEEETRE
Experiment: cGMP binding assay with GST-cGB-PDE5 fusion protein
Conditions: read-out: Kd of cGMP binding to GST-cGB-PDE5 fusion protein; two cGMP binding sites
measured_property: Kd (nM)
A number alone suffices; assume nM.

Requested read-out: Kd. Entry: Nc1nc2c(ncn2[C@@H]2O[C@@H]3COP(=O)(O)O[C@H]3[C@H]2O)c(=O)[nH]1 [cGMP, cyclic 3′,5′-guanosine monophosphate] 1600

----------
Tested on: PDE1
Assay: PDE inhibition, similar protocols: PDE1
Assay type: biochemical
Structures can show the parent of a compound that is named as a salt.
measured_property: IC50 (µM)
A number alone suffices; assume µM.

Requested read-out: IC50. Entry: CC1=C(CC(=O)NCc2ccccc2)c2cc(F)ccc2/C1=C\c1ccncc1 [Compound 38, Hydrochloride] 3
